Sequence of the target: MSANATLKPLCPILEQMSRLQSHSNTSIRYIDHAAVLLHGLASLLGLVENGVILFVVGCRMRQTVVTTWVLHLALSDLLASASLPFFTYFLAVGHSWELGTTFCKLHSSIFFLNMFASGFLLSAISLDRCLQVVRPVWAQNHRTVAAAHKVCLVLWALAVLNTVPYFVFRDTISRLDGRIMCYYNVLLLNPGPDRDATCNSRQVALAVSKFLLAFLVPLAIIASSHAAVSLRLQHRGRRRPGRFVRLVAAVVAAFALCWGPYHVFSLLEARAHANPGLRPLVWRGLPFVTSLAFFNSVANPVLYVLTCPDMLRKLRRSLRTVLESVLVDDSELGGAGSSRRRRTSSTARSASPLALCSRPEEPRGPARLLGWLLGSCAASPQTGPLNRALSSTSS
reported_endpoint: Ki (nM)

Query :: Quick one: Ki of N#Cc1cn(CC(=O)O)cc1-c1cc(C(F)(F)F)ccc1Cl [Example 17] ?
Result :: 89

Query :: Quick one: Ki of N#Cc1cn(CC(=O)O)cc1-c1cc(Cl)cc(S(=O)(=O)N2CCCCC2)c1 [Example 53] ?
Result :: 2

Query :: Quick one: Ki of N#Cc1cn(CC(=O)O)cc1-c1cc(C(F)(F)F)ccc1C(F)(F)F [Example 21] ?
Result :: 96

Query :: Quick one: Ki of N#Cc1cn(CC(=O)O)cc1-c1cc(C(F)(F)F)cc(S(=O)(=O)NC2CCC2)c1 [Example 50] ?
Result :: 4

Query :: Quick one: Ki of N#Cc1cn(CC(=O)O)cc1-c1cc(C(F)(F)F)cc(S(=O)(=O)N2CCCC2)c1 [Example 42] ?
Result :: 6

Query :: Quick one: Ki of CN(C)S(=O)(=O)c1cc(-c2cn(CC(=O)O)cc2C#N)cc(C(F)(F)F)c1 [Example 64] ?
Result :: 42

a. CCCCNS(=O)(=O)c1cc(-c2cn(CC(=O)O)cc2C#N)cc(C(F)(F)F)c1 [Example 45]
b. N#Cc1cn(CC(=O)O)cc1-c1cccc(Cl)c1 [Example 8]
Query :: Kindly identify the item with the lower Ki figure among these two: a and b State your choice using its label.
Result :: a
(a: 6 nM, b: 163 nM)

A. N#Cc1cn(CC(=O)O)cc1-c1cc(C(F)(F)F)cc(C(F)(F)F)c1 [Example 1]
B. N#Cc1cn(CC(=O)O)cc1-c1cccc(C(F)(F)F)c1 [Example 12]
Query :: Kindly identify the item with the lower Ki figure among these two: A and B State your choice using its label.
Result :: A
(A: 10 nM, B: 172 nM)

---

system_name: human CRTh2 (Homo sapiens)
protocol_text: CRTH2 cAMP functional assay in CHO.K1-CRTh2 cells
condition_set: inhibition of PGD2-mediated attenuation of forskolin-induced cAMP accumulation in CHO.K1-CRTh2 cells
reported_endpoint: IC50 (nM)

Query :: Quick one: IC50 of CN(C)S(=O)(=O)c1cc(-c2cn(CC(=O)O)cc2C#N)cc(C(F)(F)F)c1 ?
Result :: 14

A. N#Cc1cn(CC(=O)O)cc1-c1cc(Cl)cc(S(=O)(=O)N2CCCCC2)c1
B. N#Cc1cn(CC(=O)O)cc1-c1cc(Cl)ccc1Cl
Query :: For the two items A and B , which reports the higher IC50 value? State your choice using its label.
Result :: B
